- TARGET OR TEST SYSTEM: cIAP2-BIR3 (Homo sapiens (Human), UniProt Q13489)
- Sequence (Q13489 238-349): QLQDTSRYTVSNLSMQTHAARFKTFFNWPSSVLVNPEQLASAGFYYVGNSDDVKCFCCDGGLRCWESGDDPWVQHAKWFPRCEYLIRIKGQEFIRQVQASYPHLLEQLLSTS
- ASSAY NAME: BIR binding assay (FRET competition), cIAP2 BIR3
- ASSAY CONDITIONS: fold separation (FS) for cIAP2
PARAMETER MEASURED: cIAP2 BIR3 vs BIR2 separation window

SMI	RESULT
C[C@@H]1CN(CC(=O)N2CC(C)(C)c3[nH]c(=O)c(Cc4ccc(F)cc4)cc32)[C@@H](CN2CCN(Cc3c(F)c(F)c(CN4CCN(C[C@H]5CN[C@H](C)CN5CC(=O)N5CC(C)(C)c6[nH]c(=O)c(Cc7ccc(F)cc7)cc65)[C@H](C)C4)c(F)c3F)C[C@H]2C)CN1	+++ (10,000>FS>1,000)
C[C@@H]1CN(CC(=O)N2CC(C)(C)c3[nH]c(=O)c(Cc4ccc(F)cc4)cc32)[C@@H](CN2CCC(CCN(C)C(=O)c3ccc(C(=O)N(C)CCC4CCN(C[C@H]5CN[C@H](C)CN5CC(=O)N5CC(C)(C)c6[nH]c(=O)c(Cc7ccc(F)cc7)cc65)CC4)cc3)CC2)CN1	+++ (10,000>FS>1,000)
C[C@@H]1CN(CC(=O)N2CC(C)(C)c3[nH]c(=O)c(Cc4ccc(F)cc4)cc32)[C@@H](CN2CCO[C@H](C(=O)NCCCCNC(=O)[C@@H]3CN(C[C@H]4CN[C@H](C)CN4CC(=O)N4CC(C)(C)c5[nH]c(=O)c(Cc6ccc(F)cc6)cc54)CCO3)C2)CN1	+++ (10,000>FS>1,000)
C[C@@H]1CN(CC(=O)N2CC(C)(C)c3[nH]c(=O)c(Cc4ccc(F)cc4)cc32)[C@@H](CN2CCO[C@H](C(=O)N3CCCN(C(=O)[C@@H]4CN(C[C@H]5CN[C@H](C)CN5CC(=O)N5CC(C)(C)c6[nH]c(=O)c(Cc7ccc(F)cc7)cc65)CCO4)CC3)C2)CN1	+++ (10,000>FS>1,000)

###

IC50 overview
- TARGET OR TEST SYSTEM: cIAP1-BIR3 (Homo sapiens (Human), UniProt Q13490)
- Sequence (Q13490 253-363): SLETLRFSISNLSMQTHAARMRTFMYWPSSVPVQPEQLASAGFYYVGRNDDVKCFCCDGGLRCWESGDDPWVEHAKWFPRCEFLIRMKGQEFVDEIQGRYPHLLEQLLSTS
- ASSAY NAME: BIR binding assay (FRET competition), cIAP1 BIR3
- Protocol: The BIR domain binding assays are FRET based competition assays that utilize His-tagged versions of each of the BIR2 and BIR3 domains from cIAP1, cIAP2, and XIAP (each domain assayed separately) each at a custom optimal concentration and a probe, 200 nM SMAC/DIABLO peptide […] labelled with AlexaFluor647 (part #crb 1110326h, Discovery Peptides). The assay is conducted in 50 mM HEPES, […], 1 mM CHAPS, 5% Glycerol, 1 mM DTT, in dI water with a final pH of 7.4 and final volume of 20 uL. […]

Look up IC50: C[C@@H]1CN(CC(=O)N2CC(C)(C)c3[nH]c(=O)c(Oc4ccc(F)cc4)cc32)[C@@H](CN2CCO[C@H](C(=O)NCc3ccc(CNC(=O)[C@@H]4CN(C[C@H]5CN[C@H](C)CN5CC(=O)N5CC(C)(C)c6[nH]c(=O)c(Oc7ccc(F)cc7)cc65)CCO4)cc3)C2)CN1 0.00138 to 0.00794 µM

Also need C[C@@H]1CN(CC(=O)N2CC(C)(C)c3[nH]c(=O)c(Cc4ccc(F)cc4)cc32)[C@@H](CN2CCO[C@H](COCC#CC#CCOC[C@@H]3CN(C[C@H]4CN[C@H](C)CN4CC(=O)N4CC(C)(C)c5[nH]c(=O)c(Cc6ccc(F)cc6)cc54)CCO3)C2)CN1 , thanks. 0.00794 to 0.0158 µM

Also need C[C@@H]1CN(CC(=O)N2CC(C)(C)c3[nH]c(=O)c(Oc4ccc(Br)cc4)cc32)[C@@H](CN2CCO[C@H](C(=O)NCc3ccc(CNC(=O)[C@@H]4CN(C[C@H]5CN[C@H](C)CN5CC(=O)N5CC(C)(C)c6[nH]c(=O)c(Oc7ccc(Br)cc7)cc65)CCO4)cc3)C2)CN1 , thanks. 0.00138 to 0.00794 µM

Also need C[C@@H]1CN(CC(=O)N2CC(C)(C)c3[nH]c(=O)c(Cc4ccc(F)cc4)cc32)[C@@H](CN2CCO[C@H](C(=O)NCC(=O)N3CCN(C[C@H]4CN[C@H](C)CN4CC(=O)N4CC(C)(C)c5[nH]c(=O)c(Cc6ccc(F)cc6)cc54)[C@H](C)C3)C2)CN1 , thanks. 0.00794 to 0.0158 µM

Also need C[C@@H]1CN(CC(=O)N2CC(C)(C)c3[nH]c(=O)c(Cc4ccc(F)cc4)cc32)[C@@H](CN2CCN(C(=O)c3ccc(/C=C/c4ccc(C(=O)N5CCN(C[C@H]6CN[C@H](C)CN6CC(=O)N6CC(C)(C)c7[nH]c(=O)c(Cc8ccc(F)cc8)cc76)[C@H](C)C5)cc4)cc3)C[C@H]2C)CN1 , thanks. 0.0158 to 0.0316 µM

Also need C[C@@H]1CN(CC(=O)N2CC(C)(C)c3[nH]c(=O)c(Cc4cc(F)c(F)cc4F)cc32)[C@@H](CN2CCO[C@H](C(=O)NCc3ccc(CNC(=O)[C@@H]4CN(C[C@H]5CN[C@H](C)CN5CC(=O)N5CC(C)(C)c6[nH]c(=O)c(Cc7cc(F)c(F)cc7F)cc65)CCO4)cc3)C2)CN1 , thanks. 0.0158 to 0.0316 µM

Also need C[C@@H]1CN(CC(=O)N2CC(C)(C)c3[nH]c(=O)c(Cc4ccc(F)cc4)cc32)[C@@H](CN2CCO[C@H](C(=O)Nc3cccc(NC(=O)[C@@H]4CN(C[C@H]5CN[C@H](C)CN5CC(=O)N5CC(C)(C)c6[nH]c(=O)c(Cc7ccc(F)cc7)cc65)CCO4)c3)C2)CN1 , thanks. 0.00794 to 0.0158 µM

###

- TARGET OR TEST SYSTEM: cIAP2-BIR3 (Homo sapiens (Human))
- ASSAY NAME: BIR binding assay (FRET competition), cIAP2 BIR3
pIC50: −log10 of the molar value.
PARAMETER MEASURED: pIC50

Consider the reported pIC50 for these molecules:
SMI	TARGET OR TEST SYSTEM	RESULT
C[C@@H]1CN(CC(=O)N2CC(C)(C)c3[nH]c(=O)c(Cc4ccc(F)cc4)cc32)[C@@H](CN2CCN(CCc3cn(CCCC(=O)N4CCN(C[C@H]5CN[C@H](C)CN5CC(=O)N5CC(C)(C)c6[nH]c(=O)c(Cc7ccc(F)cc7)cc65)[C@H](C)C4)nn3)C[C@H]2C)CN1	cIAP2-BIR3 (Homo sapiens (Human))	7.80 to 8.10
C[C@@H]1CN(CC(=O)N2CC(C)(C)c3[nH]c(=O)c(Cc4ccc(F)cc4)cc32)[C@@H](CN2CCC(CCNC(=O)c3ccc(C(=O)NCCC4CCN(C[C@H]5CN[C@H](C)CN5CC(=O)N5CC(C)(C)c6[nH]c(=O)c(Cc7ccc(F)cc7)cc65)CC4)cc3)CC2)CN1	cIAP2-BIR3 (Homo sapiens (Human))	7.80 to 8.10
C[C@@H]1CN(CC(=O)N2CC(C)(C)c3[nH]c(=O)c(Cc4ccc(F)cc4)cc32)[C@@H](CN2CCO[C@H](COc3ccc(C(C)(C)c4ccc(OC[C@@H]5CN(C[C@H]6CN[C@H](C)CN6CC(=O)N6CC(C)(C)c7[nH]c(=O)c(Cc8ccc(F)cc8)cc76)CCO5)cc4)cc3)C2)CN1	cIAP2-BIR3 (Homo sapiens (Human))	6.30 to 7.50
C[C@@H]1CN(CC(=O)N2CC(C)(C)c3[nH]c(=O)c(Cc4ccc(F)cc4)cc32)[C@@H](CN2CCC(CC(=O)N(C)Cc3ccc(CN(C)C(=O)CC4CCN(C[C@H]5CN[C@H](C)CN5CC(=O)N5CC(C)(C)c6[nH]c(=O)c(Cc7ccc(F)cc7)cc65)CC4)cc3)CC2)CN1	cIAP2-BIR3 (Homo sapiens (Human))	8.10 to 8.86

Look up pIC50: C[C@@H]1CN(CC(=O)N2CC(C)(C)c3[nH]c(=O)c(Cc4ccc(F)cc4)cc32)[C@@H](CN2CCC[C@@H](NC(=O)Cc3ccc(CC(=O)N[C@@H]4CCCN(C[C@H]5CN[C@H](C)CN5CC(=O)N5CC(C)(C)c6[nH]c(=O)c(Cc7ccc(F)cc7)cc65)C4)cc3)C2)CN1 7.50 to 7.80

Also need C[C@@H]1CN(CC(=O)N2CC(C)(C)c3[nH]c(=O)c(Cc4ccc(F)cc4)cc32)[C@@H](CN2CCN(C(=O)COc3cccc(OCC(=O)N4CCN(C[C@H]5CN[C@H](C)CN5CC(=O)N5CC(C)(C)c6[nH]c(=O)c(Cc7ccc(F)cc7)cc65)[C@H](C)C4)c3)C[C@H]2C)CN1 , thanks. 7.50 to 7.80

Also need C[C@@H]1CN(CC(=O)N2CC(C)(C)c3[nH]c(=O)c(Cc4ccc(F)cc4)cc32)[C@@H](CN2CCO[C@H](COCCOCCOC[C@@H]3CN(C[C@H]4CN[C@H](C)CN4CC(=O)N4CC(C)(C)c5[nH]c(=O)c(Cc6ccc(F)cc6)cc54)CCO3)C2)CN1 , thanks. 7.50 to 7.80

Also need C[C@@H]1CN(CC(=O)N2CC(C)(C)c3[nH]c(=O)c(Cc4ccc(F)cc4)cc32)[C@@H](CN2CCO[C@H](COc3ccc(F)c(OC[C@@H]4CN(C[C@H]5CN[C@H](C)CN5CC(=O)N5CC(C)(C)c6[nH]c(=O)c(Cc7ccc(F)cc7)cc65)CCO4)c3)C2)CN1 , thanks. 8.10 to 8.86

Also need C[C@@H]1CN(CC(=O)N2CC(C)(C)c3[nH]c(=O)c(Cc4c(Cl)cc(Cl)cc4Cl)cc32)[C@@H](CN2CCO[C@H](C(=O)NCc3ccc(CNC(=O)[C@@H]4CN(C[C@H]5CN[C@H](C)CN5CC(=O)N5CC(C)(C)c6[nH]c(=O)c(Cc7c(Cl)cc(Cl)cc7Cl)cc65)CCO4)cc3)C2)CN1 , thanks. 6.30 to 7.50

Also need C[C@@H]1CN(CC(=O)N2CC(C)(C)c3[nH]c(=O)c(Cc4ccc(F)cc4)cc32)[C@@H](CN2CCN(Cc3cn(CCC(=O)N4CCN(C[C@H]5CN[C@H](C)CN5CC(=O)N5CC(C)(C)c6[nH]c(=O)c(Cc7ccc(F)cc7)cc65)[C@H](C)C4)nn3)C[C@H]2C)CN1 , thanks. 7.80 to 8.10

Also need C[C@@H]1CN(CC(=O)N2CC(C)(C)c3[nH]c(=O)c(Cc4ccc(F)cc4)cc32)[C@@H](CN2CCO[C@H](C(=O)NCCOCCNC(=O)[C@@H]3CN(C[C@H]4CN[C@H](C)CN4CC(=O)N4CC(C)(C)c5[nH]c(=O)c(Cc6ccc(F)cc6)cc54)CCO3)C2)CN1 , thanks. 8.10 to 8.86

Also need C[C@@H]1CN(CC(=O)N2CC(C)(C)c3[nH]c(=O)c(Cc4ccc(Cl)cc4Cl)cc32)[C@@H](CN2CCO[C@H](COc3cccc(OC[C@@H]4CN(C[C@H]5CN[C@H](C)CN5CC(=O)N5CC(C)(C)c6[nH]c(=O)c(Cc7ccc(Cl)cc7Cl)cc65)CCO4)c3)C2)CN1 , thanks. 7.80 to 8.10

Also need C[C@@H]1CN(CC(=O)N2CC(C)(C)c3[nH]c(=O)c(Cc4ccc(F)cc4)cc32)[C@@H](CN2CCO[C@H](C(=O)NCCCCCCCCNC(=O)[C@@H]3CN(C[C@H]4CN[C@H](C)CN4CC(=O)N4CC(C)(C)c5[nH]c(=O)c(Cc6ccc(F)cc6)cc54)CCO3)C2)CN1 , thanks. 8.10 to 8.86

Also need C[C@@H]1CN(CC(=O)N2CC(C)(C)c3[nH]c(=O)c(Cc4ccc(F)cc4)cc32)[C@@H](CN2CCO[C@H](C(=O)NCC(C)(C)CNC(=O)[C@@H]3CN(C[C@H]4CN[C@H](C)CN4CC(=O)N4CC(C)(C)c5[nH]c(=O)c(Cc6ccc(F)cc6)cc54)CCO3)C2)CN1 , thanks. 7.80 to 8.10
